# credit: ChEMBL document CHEMBL1122026

Examples of compounds with documented Ka follow.
# Species on record: Rattus norvegicus
# test-description: Affinity constant was measured by inhibition of estrus in ovariectomized rats treated with 17-beta-estradiol at a dose of 5 mg
# Assay type: functional, organism-based
Mention the unit after the number when you answer.

Past entries and their recorded results:
INSERT INTO measurements (smiles_code, measure_name, test_value) VALUES
  ('Oc1ccc2cc3c(ccc4cc(O)ccc43)cc2c1', 'Ka', '3e+07 M⁻¹'),
  ('Cc1c2cc(O)ccc2c(C)c2c1ccc1cc(O)ccc12', 'Ka', '1.7e+08 M⁻¹'),
  ('Cc1c2ccc(O)cc2cc2ccc3cc(O)ccc3c12', 'Ka', '4.3e+07 M⁻¹');

// next entry
Exercise: Consider the compound shown here: `Cc1c2cc(O)ccc2cc2c1ccc1cc(O)ccc12` What is its recorded Ka?
Solution: 1.8e+09 M⁻¹
